# assay: chemical genetic growth profiling, strain panel (AID 1159580);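 also: tested at 20 µM; growth read once vehicle control cultures reached saturation at 30 °C; 1 = growth at the plate median or of vehicle wells; lower values mean less growth of the strain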
# stated.conditions: S. cerevisiae deletion strains, growth OD, locus YJR066W, strain TOR1, hits give low values
In all, about 5,500 compounds went through this assay and about 2,000 (36%) were called active. Roughly 18% stayed inconclusive and do not appear here. The list shows a part of the results.
# note: exactly 0.9 is not below, so it is no (0); use yes (1) for normalized growth strictly under it

Here's what some known entries look like.
molecule=COC1=C[C@@H]2[C@@H]3Cc4ccc(OC)c(O)c4[C@]2(CCN3C)CC1=O category="no (0)"
molecule=Cc1csc(NC(=O)Nc2ccc(C(F)(F)F)cc2)c1 category="no (0)"
molecule="CCC(C)C(=O)O[C@H]1[C@H](O)C2C(CN3CC(C)CCC3[C@@]2(C)O)C2C[C@]34O[C@]5(O)C(OC(=O)C(C)(O)CC)CC[C@@]3(C)C5C(OC(C)=O)[C@@H](OC(C)=O)C4[C@@]21O (stereo partly drawn)" category="no (0)"
molecule="O=C(NCC(c1ccccc1)c1c[nH]c2ccccc12)c1ccc(C(F)(F)F)cc1 (stereo not drawn)" category="no (0)"
molecule=C[C@@H]1CC[C@H]2[C@@H](C)C(=O)O[C@@H]3O[C@@]4(C)CC[C@@H]1[C@]32OO4 category="yes (1)"
molecule="Nc1ccccc1C(=O)CC(N)C(=O)O (stereo not drawn)" category="no (0)"
molecule=NCCC(=O)N[C@@H](Cc1cnc[nH]1)C(=O)O category="no (0)"
molecule="NC(Cc1c[nH]c2ccccc12)C(=O)O (stereo not drawn)" category="no (0)"

Task: Threshold test, normalized growth < 0.9: Cc1ccnc(NS(=O)(=O)c2ccc(N)cc2)n1
Result: no (0)

Task: Threshold test, normalized growth < 0.9: FC(F)(F)c1ccccc1-n1ccnc1
Result: no (0)

Task: Threshold test, normalized growth < 0.9: COC1=C(O)C(=O)c2c(cc3oc(C(C)=O)c(O)c3c2O)C1=O
Result: no (0)

Task: Threshold test, normalized growth < 0.9: Clc1ccccc1C(c1ccccc1)(c1ccccc1)n1ccnc1
Result: yes (1)

Task: Threshold test, normalized growth < 0.9: N=C(N)SCCN
Result: no (0)

###

# assay: chemical genetic growth profiling, strain panel (AID 1159580)
# stated.conditions: S. cerevisiae deletion strains, growth OD, locus YMR307W, strain GAS1
The campaign covered roughly 5,500 compounds. About 2,000 (36%) were called active. Another 18% or so got no clear call; they are omitted. Cut-off read from the data, not from the text of the source: active = normalized growth mostly below about 0.91 (no sharp cut-off); inconclusive = no clear call, values can overlap the other calls; inactive = mostly above about 0.92. The list shows a part of the results.
Classes to choose from: active, inactive

Task: What was the test verdict on Nc1c2c(nc3ccccc13)CCCC2O (stereo not drawn) ?
Result: inactive

Task: What was the test verdict on Cc1csc2ccc(Cl)cc12 ?
Result: inactive

Task: What was the test verdict on O=C(O)CCCCCC[C@H]1C(=O)NC(=O)N1CC[C@@H](O)C1CCCCC1 ?
Result: inactive

Task: What was the test verdict on O=C(Nc1ccc(Cl)c(Cl)c1)c1ccccc1 ?
Result: active

Task: What was the test verdict on COc1ccc(C(=O)NCc2cccnc2)cc1C(=O)NCc1cccnc1 ?
Result: inactive

Task: What was the test verdict on O=C(COc1ccc(Cl)cc1)N1CCN(Cc2ccc3c(c2)OCO3)CC1 ?
Result: inactive

Task: What was the test verdict on CN=c1nc(-c2ccccc2)n(-c2ccccc2)s1 ?
Result: inactive

Task: What was the test verdict on CC1=NS(=O)(=O)c2cc(Cl)ccc2N1 ?
Result: inactive

Task: What was the test verdict on COc1ccc2c3c([nH]c2c1)C(C)=NCC3 ?
Result: inactive

Task: What was the test verdict on O=C1C(O)=C(O)C(=O)C(O)=C1O ?
Result: inactive

Task: What was the test verdict on O=c1c2ccccc2nc2n1CCc1c-2[nH]c2ccccc12 ?
Result: inactive

Task: What was the test verdict on OC(CCN1CCCC1)(c1ccccc1)C1CCCCC1 (stereo not drawn) ?
Result: inactive

Task: What was the test verdict on N[C@H](C(=O)O)[C@@H]1CC(Cl)=NO1 ?
Result: inactive

###

# assay: chemical genetic growth profiling, strain panel (AID 1159580)
# stated.conditions: S. cerevisiae deletion strains, growth OD, locus YDR335W, strain msn5, hits give low values
Among all 5,500 compounds or so, about 2,000 (36%) were called active. Another 18% or so got no clear call; they are omitted. The list shows a part of the results.
recorded.metric: normalized growth
Give your answer as a number; write no unit.

Here are 3 compounds together with their reported answers.
compound=CNCc1ccccc1 meas_value=1.02
compound="CC(C)CC(N(C)C)C1(c2ccc(Cl)cc2)CCC1 (stereo unspecified)" meas_value=1
compound="CC(C)CCCC1(C)C=Cc2c(O)c3c(c(CCC(C)C)c2O1)OC12C(CC4CC1C(C)(C)OC2(CCC(C)C(=O)O)C4O)C3=O (stereo unspecified)" meas_value=0.995

Lookup result for CC1=NS(=O)(=O)c2cc(Cl)ccc2N1 ; measured normalized growth: 0.971

###

# assay: chemical genetic growth profiling, strain panel (AID 1159580);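 also: tested at 20 µM; growth read once vehicle control cultures reached saturation at 30 °C; 1 = growth at the plate median or of vehicle wells; lower values mean less growth of the strain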
# stated.conditions: S. cerevisiae deletion strains, growth OD, locus YBR279W, strain paf1, hits give low values
Hit rate of the full screen: of about 5,500 compounds, about 2,000 (36%) were called active. Inconclusive results (about 18%) are left out. Some of the results follow.
recorded.metric: normalized growth

molecule=C/C=C1\[C@H]2C=C(C)C[C@]1(N)c1ccc(=O)[nH]c1C2 meas_value="1.02 (inactive)"
molecule="COC(=O)Nc1nc2ccc(S(=O)c3ccccc3)cc2[nH]1 (stereo not given)" meas_value="0.994 (inactive)"
molecule=COC(=O)Nc1nc2ccc(Sc3ccccc3)cc2[nH]1 meas_value="0.985 (inactive)"
molecule="COc1c(-c2coc3cc4c(cc3c2=O)CC(O)C(C)(C)O4)ccc2c1C=CC(C)(C)O2 (stereo not given)" meas_value="0.989 (inactive)"

Next, consider the following molecule.
Lookup result for COc1c(-c2coc3cc4c(cc3c2=O)CC(OC(C)=O)C(C)(C)O4)ccc2c1C=CC(C)(C)O2 (stereo not given) ; measured normalized growth: 1.03 (inactive)

###

Listed below: normalized growth values for each entry.
# assay: chemical genetic growth profiling, strain panel (AID 1159580);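 also: tested at 20 µM; growth read once vehicle control cultures reached saturation at 30 °C; 1 = growth at the plate median or of vehicle wells; lower values mean less growth of the strain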
# stated.conditions: S. cerevisiae deletion strains, growth OD, locus YER133W, strain GLC7, hits give low values
Hit rate of the full screen: of about 5,500 compounds, about 2,000 (36%) were called active. About 18% were inconclusive and are not listed. The list shows a part of the results.
Give your answer as a number; write no unit.

compound=N#Cc1c2ccccc2nc2ccccc12 meas_value=0.717
compound=Nc1ccc(Sc2ccccc2)nc1Sc1ccccc1 meas_value=0.927
compound="CC(C)Cc1ccc(C(C)C(=O)Nc2nn(C)c3ccccc23)cc1 (configuration not stated)" meas_value=0.945
compound=CCCc1nc(-c2ccccn2)[nH]c(=O)c1CC1CC1 meas_value=0.952
compound=O=C(N/N=C\c1cc(Br)ccc1O)c1ccccc1Oc1ccccc1 meas_value=0.955

Lookup result for C=CCc1c(CCC)nc(-c2ccccn2)[nH]c1=O ; measured normalized growth: 0.912

Lookup result for Cc1csc(NC(=O)Nc2ccc(C(F)(F)F)cc2)c1 ; measured normalized growth: 0.848

Lookup result for COC(=O)c1cnn(-c2c(Cl)cccc2Cl)c1C=C(C#N)C#N ; measured normalized growth: 0.922

Lookup result for CCOC(=O)c1cc(CC)sc1NC(=O)c1ccc([N+](=O)[O-])o1 ; measured normalized growth: 0.347

Lookup result for Cc1nc(-c2ccccn2)[nH]c(=O)c1Cc1c(Cl)cccc1Cl ; measured normalized growth: 0.872

Lookup result for CC(C)(C)C(=O)N(Cc1cccnc1)Cc1ccc(Cl)cc1Cl ; measured normalized growth: 0.948

Lookup result for Nc1ccccc1C(=O)N/N=C\c1cc(Br)ccc1O ; measured normalized growth: 0.979

###

# assay: chemical genetic growth profiling, strain panel (AID 1159580);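 also: tested at 20 µM; growth read once vehicle control cultures reached saturation at 30 °C; 1 = growth at the plate median or of vehicle wells; lower values mean less growth of the strain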
# stated.conditions: S. cerevisiae deletion strains, growth OD, locus YLR371W, strain rom2
Among all 5,500 compounds or so, about 2,000 (36%) were called active. Roughly 18% stayed inconclusive and do not appear here. No stated cut-off is given here; in the data, active means normalized growth mostly below about 0.91 (no sharp cut-off); inconclusive means no clear call, values can overlap the other calls; inactive means mostly above about 0.92. The list shows a part of the results.
Classes to choose from: active, inactive

Here's what some known entries look like.
compound=C[C@@H]1CC[C@H]2[C@@H](C)C(=O)O[C@@H]3O[C@@]4(C)CC[C@@H]1[C@]32OO4 category=inactive
compound="C[C@@H]1CC[C@H]2[C@@H](C)C(O)O[C@@H]3O[C@@]4(C)CC[C@@H]1[C@]32OO4 (some centres undefined)" category=active
compound="Fc1ccc(C(c2ccccc2)(c2ccccc2F)n2ccnc2)cc1 (centres undefined)" category=active
compound=O=C1c2c(O)cccc2Cc2cccc(O)c21 category=inactive
compound="C#C[C@]1(O)CCC2C3CCC4=C(CCC(=O)C4)C3CC[C@@]21C (some centres undefined)" category=inactive

Task: What was the test verdict on CCC(C)C(NC)C(=O)O (centres undefined) ?
Result: inactive

Task: What was the test verdict on N#CC(O[C@@H]1O[C@H](CO[C@@H]2O[C@H](CO)[C@@H](O)[C@H](O)[C@H]2O)[C@@H](O)[C@H](O)[C@H]1O)c1ccccc1 (some centres undefined) ?
Result: inactive

Task: What was the test verdict on C[C@@H]1C(=O)O[C@H]2[C@H]1CC[C@@]1(C)C=CC(=O)[C@@]3(C)O[C@@]213 ?
Result: inactive

Task: What was the test verdict on C[C@@H]1CC[C@]2(C(=O)O)CC[C@]3(C)C(=CCC4[C@@]5(C)CC[C@H](O)C(C)(C)C5CC[C@]43C)C2[C@H]1C (some centres undefined) ?
Result: inactive
